Test Name: NCI Yeast Anticancer Drug Screen. Data for the bub3 strain (AID 167)
Experimental Context: S. cerevisiae bub3 mutant strain, at 50.0 µM (retest, dose inferred, filed as 5.0), hits give high values
The panel holds about 79,000 compounds, 15% with a hit somewhere; the sample as a whole holds those more often.
If the reported growth inhibition equals or exceeds 40%, assign Satisfied. If not, assign Not satisfied.

Below are worked cases with known answers.
Qu. Please check the record CCOC(=O)C1=C(N)OC(c2ccccc2)=C(C#N)C1c1ccc(C)cc1 (centres undefined) and state if its growth inhibition is at or above 40%.
Ans. Satisfied

Qu. Has `C=C1C(=O)O[C@@H]2C[C@@]3(C)CCC[C@H](C)C3=C[C@H]12` a recorded growth inhibition greater than or equal to 40%?
Ans. Satisfied

Qu. Determine whether this molecule has growth inhibition no lower than 40%: `O=C(n1c2ccccc2c2n[nH]c(=S)nc21)C(F)(F)F`
Ans. Not satisfied

Qu. Identify whether the reported growth inhibition of the following molecule is 40% or greater: `Cc1nc(C(N)=S)sc1/C(CC(=O)C(=O)Nc1cccc2ccc(O)cc12)=N\NC(=O)c1ccncc1`
Ans. Not satisfied

Qu. Is the recorded value of growth inhibition equal to or greater than 40% for this molecule? `O=Cc1ccc([N+](=O)[O-])o1`
Ans. Satisfied

Continuing:
Qu. Answer whether growth inhibition of `CCCCCCCCCCCCCCCCN(C)c1ccc(S(=O)(=O)O)cc1[N+](=O)[O-]` is greater than or equal to 40%.
Ans. Satisfied

Qu. Please check the record `COC(=O)c1cc[nH]c(=O)c1` and state if its growth inhibition is at or above 40%.
Ans. Not satisfied

Qu. Determine whether this molecule has growth inhibition no lower than 40%: `Oc1cc(Cl)cc2cc(Cl)cnc12`
Ans. Satisfied

Qu. Identify whether the reported growth inhibition of the following molecule is 40% or greater: `O=C(N/C(=C\c1cc(Cl)ccc1Cl)c1nc2ccc(Cl)cc2[nH]1)c1ccccc1`
Ans. Satisfied

Qu. Reported growth inhibition at or above 40%? `Cc1c(N=Nc2ccc(Br)cc2)c(-c2ccccc2)nn1C(=S)S`
Ans. Satisfied

Qu. Dear colleague, could you confirm whether O=C(Sc1ccccc1)C1OC12CCCCC2 (centres undefined) has growth inhibition at or above 40%?
Ans. Not satisfied

Qu. Does the reported growth inhibition for `Clc1ccc(-c2nnc(-c3ccccn3)o2)c(Cl)c1` fall at or above the 40% mark?
Ans. Satisfied

Qu. Is growth inhibition at least 40%? Consider CCN(CC)CC(O)CNc1ccc(NCC(O)CCl)c2c1C(=O)c1ccccc1C2=O (centres undefined)
Ans. Satisfied

Qu. Reported growth inhibition reaches at least 40% for `O=C(OCc1ccccc1CN1CCOCC1)c1cccc(Br)c1` ?
Ans. Satisfied

---

Test Name: NCI Yeast Anticancer Drug Screen. Data for the mlh1 rad18 strain (AID 175)
Experimental Context: S. cerevisiae mlh1 rad18 strain growth inhibition; at 5.0 µM (retest, dose inferred, filed as 0.5); hits give high values
About 79,000 compounds went through this panel and 15% of them were active in at least one assay; those are over-represented in the sample as a whole.
Measure: growth inhibition (%)
Please reply with the bare figure in % and do not write the unit itself.

# annotated cases, reported growth inhibition shown
Qu. Would you mind telling me what growth inhibition value was observed for CC(C)=C1C=C2CCC3C(C)(C(=O)O)CCCC3(C)C2CC1 (stereo unspecified) (tested in a mixture with another compound) ?
Ans. -1

Qu. Report growth inhibition for CCCCc1cc2c(cc1O)CCC1C2CC[C@@]2(C)C1CC[C@@H]2O (stereo partly specified) please.
Ans. -2

Qu. Consider the compound shown here: `S=C(NC(=S)Nc1ccccc1)Nc1ccccc1` What is its recorded growth inhibition?
Ans. 8

Qu. Requested field: growth inhibition. Item: `N#CS/C(C(Cl)=C(Cl)Cl)=C(/Cl)[N+](=O)[O-]`
Ans. 99

Qu. What growth inhibition value was documented for this compound, `COc1c2c3c(ccnc3c3ccccc13)C(=O)N2C` ?
Ans. 17

Further cases:
Qu. Which growth inhibition value is on record for `Nc1cc(=O)[nH]c(=S)[nH]1.[Pd]` ?
Ans. 0

Qu. Quick one: growth inhibition for O=C1OC(c2ccc(O)cc2)=C(c2ccccc2)C1c1ccccc1 (stereo unspecified) ?
Ans. 10

Qu. Which growth inhibition is reported for this compound? `CC(C)(C)NCc1cc(C(C)(C)C)cc(-c2ccc(Cl)cc2)c1O`
Ans. 25

Qu. Find the recorded growth inhibition belonging to `CCCCCCCCCN1CCNC1=S` and report it.
Ans. 0

Qu. Data request, read-out growth inhibition, for `Clc1ccc(CN2COc3c(ccc4cccnc34)C2)cc1`
Ans. 2

Qu. Need growth inhibition of Clc1ccc(C2=Nc3ccccc3SC(c3ccc(Cl)c(Cl)c3)C2)c(Cl)c1 (stereo unspecified) , thanks.
Ans. 13

Qu. Could you share which growth inhibition value was measured for COC(=O)C1(Cc2ccc(C)cc2)Cc2c(C)cccc2C1=O (stereo unspecified) ?
Ans. -1

Qu. Bench note: what growth inhibition did COC(=O)NC1CCCCCCCCCCC1I (stereo unspecified) show?
Ans. 5

Qu. If you can, please state the reported growth inhibition value of OC(c1ccccc1)c1cccc2ccccc12 (stereo unspecified) .
Ans. -1

Qu. Which growth inhibition is reported for this compound? CCc1ccccc1NC(=O)C(=O)C(C#N)c1c(Cl)cccc1Cl (stereo unspecified)
Ans. 0

Qu. Form field: reported growth inhibition of `Cc1cc2nc3ccc(N(C)C)cc3nc2cc1N`
Ans. 42

Qu. Request the reported growth inhibition associated with CC(c1ccc(OCc2ccccc2)cc1)c1cc2c(cc1OCCO)OCO2 (stereo unspecified)
Ans. 4

Qu. Sample `CCCc1cc(-c2ccc(O)c(CCC)c2)ccc1O` — what was its growth inhibition?
Ans. 96

Qu. Item `COc1ccc2c(c1)[n+]([O-])c(-c1ccc(Cl)c(Cl)c1)c(N)[n+]2[O-]` has what recorded growth inhibition?
Ans. 71

Qu. Can you look up the measured growth inhibition of CC1(C)CC(O)C(O)C1 (stereo unspecified) for me?
Ans. -1

Qu. Can you look up the measured growth inhibition of `CCOC(=O)c1[nH]c2c([N+](=O)[O-])cccc2c1[N+](=O)[O-]` for me?
Ans. -2

Qu. Entry CN(Cc1ccccc1)CC(O)c1cc(-c2ccc(Cl)cc2)nc2ccccc12 (stereo unspecified) : reported growth inhibition = ?
Ans. 10

Qu. Sample NC(=O)NCCCCC1NC(=S)N(c2ccccc2)C1=O (stereo unspecified) — what was its growth inhibition?
Ans. -9

// provenance: PubChem BioAssay (NCI)
